test system: CWR22R; assay: Antiproliferative activity against human 22Rv1 cells assessed as inhibition of cell proliferation treated for 72 hrs by resazurin dye-based fluorescence assay; assay type: functional; conditions: 22Rv1, 72 h
pIC50: −log10 of the molar value.
# pIC50 annotations
METRIC NAME: pIC50

- Nc1ccn([C@@H]2O[C@@H]3CO[P@](=O)(OCC(=O)OCc4ccccc4)O[C@H]3C2(F)F)c(=O)n1: 7.97
- CCOC(=O)COP1(=O)OC[C@H]2O[C@@H](n3ccc(N)nc3=O)C(F)(F)[C@@H]2O1 (some centres undefined): 7.69
- COC(=O)COP1(=O)OC[C@H]2O[C@@H](n3ccc(N)nc3=O)C(F)(F)[C@@H]2O1 (some centres undefined): 7.67
- Nc1ccn([C@@H]2O[C@@H]3COP(=O)(OCC(=O)OCc4ccccc4)O[C@H]3C2(F)F)c(=O)n1 (some centres undefined): 7.97
- Nc1ccn([C@@H]2O[C@@H]3CO[P@@](=O)(OCC(=O)OCc4ccccc4)O[C@H]3C2(F)F)c(=O)n1: 8.09
- Nc1ccn([C@@H]2O[C@H](COP(=O)(O)OCC(=O)OCc3ccccc3)[C@@H](O)C2(F)F)c(=O)n1: 7.36
- C[C@H](NP(=O)(OC[C@H]1O[C@@H](n2ccc(N)nc2=O)C(F)(F)[C@@H]1O)Oc1ccccc1)C(=O)OCc1ccccc1 (some centres undefined) [FOSGEMCITABINE PALABENAMIDE]: 6.89
- Nc1ccn([C@@H]2O[C@H](CO)[C@@H](OP(=O)(O)OCC(=O)OCc3ccccc3)C2(F)F)c(=O)n1: 7.36
- CC(C)OC(=O)COP1(=O)OC[C@H]2O[C@@H](n3ccc(N)nc3=O)C(F)(F)[C@@H]2O1 (some centres undefined): 7.82

###

experiment: Half life in Beagle dog at 1 mg/kg, iv measured for 0.083 to 24 hrs by LC-MS/MS analysis; type: ADME, organism-based, Canis lupus familiaris; details: in vivo, time 0.083-24 hrs
METRIC NAME: half-life (min)

- Nc1ccn([C@@H]2O[C@H](COP(=O)(O)OCC(=O)OCc3ccccc3)[C@@H](O)C2(F)F)c(=O)n1: 35.2
- Nc1ccn([C@@H]2O[C@@H]3COP(=O)(OCC(=O)OCc4ccccc4)O[C@H]3C2(F)F)c(=O)n1 (stereo partly drawn): 7.2
- Nc1ccn([C@@H]2O[C@H](CO)[C@@H](OP(=O)(O)OCC(=O)OCc3ccccc3)C2(F)F)c(=O)n1: 35.2

###

experiment: Metabolic stability in beagle dog plasma assessed as half life incubated for 6 hrs by HPLC analysis; type: ADME, cell-free, Canis lupus familiaris
METRIC NAME: half-life

- Nc1ccn([C@@H]2O[C@@H]3COP(=O)(OCC(=O)OCc4ccccc4)O[C@H]3C2(F)F)c(=O)n1 (stereo partly specified): 40 min

###

# log10(IC50) annotations
tested on: MV4-11; test: Antiproliferative activity against human MV4-11 cells assessed as inhibition of cell proliferation treated for 72 hrs by resazurin dye-based fluorescence assay; format: functional; conditions: MV4-11, 72 h
METRIC NAME: log10(IC50) (log10 of the value in nM)

• COC(=O)COP1(=O)OC[C@H]2O[C@@H](n3ccc(N)nc3=O)C(F)(F)[C@@H]2O1 (stereo partly specified) = 0.76
• C[C@H](NP(=O)(OC[C@H]1O[C@@H](n2ccc(N)nc2=O)C(F)(F)[C@@H]1O)Oc1ccccc1)C(=O)OCc1ccccc1 (stereo partly specified) [FOSGEMCITABINE PALABENAMIDE] = 1.79
• Nc1ccn([C@@H]2O[C@H](CO)[C@@H](OP(=O)(O)OCC(=O)OCc3ccccc3)C2(F)F)c(=O)n1 = 1.01
• COC(=O)COP(=O)(N[C@@H](C)C(=O)OCc1ccccc1)OC[C@H]1O[C@@H](n2ccc(N)nc2=O)C(F)(F)[C@@H]1O (stereo partly specified) = 0.76
• Nc1ccn([C@@H]2O[C@@H]3CO[P@@](=O)(OCC(=O)OCc4ccccc4)O[C@H]3C2(F)F)c(=O)n1 = 0.61
• COC(=O)COP(=O)(N[C@@H](C)C(=O)OC(C)C)OC[C@H]1O[C@@H](n2ccc(N)nc2=O)C(F)(F)[C@@H]1O (stereo partly specified) = 0.54
• Nc1ccn([C@@H]2O[C@@H]3COP(=O)(OCC(=O)OCc4ccccc4)O[C@H]3C2(F)F)c(=O)n1 (stereo partly specified) = 0.73
• CC(C)OC(=O)COP1(=O)OC[C@H]2O[C@@H](n3ccc(N)nc3=O)C(F)(F)[C@@H]2O1 (stereo partly specified) = 0.69
• CCOC(=O)COP1(=O)OC[C@H]2O[C@@H](n3ccc(N)nc3=O)C(F)(F)[C@@H]2O1 (stereo partly specified) = 0.79
• Nc1ccn([C@@H]2O[C@H](COP(=O)(O)OCC(=O)OCc3ccccc3)[C@@H](O)C2(F)F)c(=O)n1 = 1.01
• Nc1ccn([C@@H]2O[C@@H]3CO[P@](=O)(OCC(=O)OCc4ccccc4)O[C@H]3C2(F)F)c(=O)n1 = 0.58
